test system: P388 leukemia ip, CD2F1 mice, survival T/C; assay: NCI In Vivo Anticancer Drug Screen. Data for tumor model P388 Leukemia (intraperitoneal) in CD2F1 (CDF1) mice; details: endpoint: median survival time; dose: 12.5 mg/kg/injection; schedule: Q01DX005 (ip); vehicle: saline; higher = longer survival
Toxic doses and inconclusive results are not listed.
propertyName: T/C

Some compounds with recorded T/C:
compound | reportedResult
[NH-]C(CCC(N)=O)C(=O)O.[NH-]C(CCCCN)C(=O)O.[Zn+2] (configuration not stated) | 102 % of control
CN=C(NC)c1ccc(NC(=O)c2cc(Cl)cc(C(=O)Nc3ccc(C(=NC)NC)cc3)c2)cc1 | 113 % of control
CN(C)CC(CN(C)C)C(=O)/C=C/c1ccc(OCc2ccccc2)cc1 | 97 % of control

Hi! What's the reported T/C for "O=C1C=CC(=O)c2c1c(O)c1ccccc1c2Cl" on P388 leukemia ip, CD2F1 mice, survival T/C?
95 % of control

Can you handle C[N+]1(C)CC=CCC1c1ccccc1 (configuration not stated) next?
105 % of control

Now try CCCOC(=O)C1C2CCC(O2)C1C(=O)O (configuration not stated) .
103 % of control

Then what about the compound "COc1ccc(C(=O)O[C@H]2CC[C@@]3(C)[C@@H]4CC[C@H]5[C@]6(O)C[C@H](O)[C@@]7(O)[C@@H](CN8C[C@@H](C)CC[C@H]8[C@@]7(C)O)[C@]6(O)C[C@@]53OC24O)cc1OC" ?
97 % of control

---

tested on: P388 leukemia ip, CD2F1 mice, survival T/C; assay: NCI In Vivo Anticancer Drug Screen. Data for tumor model P388 Leukemia (intraperitoneal) in CD2F1 (CDF1) mice; conditions: endpoint: median survival time; dose: 100.0 mg/kg/injection; schedule: Q04DX002 (ip); vehicle: saline with Tween-80; higher = longer survival
Inconclusive results and toxic doses are left out.
Below, each entry is listed with its recorded T/C.

molecule | propertyName | reportedResult
CCOC(=O)c1ccc(N=C(C2=C(O)c3ccccc3C2=O)c2ccccc2)cc1 | T/C | 95 % of control
CNc1nc(OC)nc2c1cnn2C1CCCCO1 (centres undefined) | T/C | 97 % of control
Cc1ccc(N=Nc2c(O)n(-c3ccc(C)cc3)c(=S)n(-c3ccc(Br)cc3)c2=O)cc1 | T/C | 99 % of control
CC(C)C(O)Cc1cc(=O)[nH]c2ccccc12 (centres undefined) | T/C | 87 % of control
COc1nc(N)c2cnn(C3CCCCO3)c2n1 (centres undefined) | T/C | 99 % of control

// returns reported T/C for input CC1(Br)CN([C@@H](C(=O)O)c2ccccc2)C1=O (some centres undefined)
96 % of control

Also Cc1ccc2c(c1)SP(c1ccccc1)S2 (centres undefined) , if possible.
103 % of control

Also check "CC(C)(CC(=O)OCCO)c1cc(CC(C)(C)c2cc(CC(C)(C)c3cc(CC(C)(C)C4(C)OCCO4)no3)no2)no1"
88 % of control

Same again, this time with CSc1nc(N(C)C)c2cnn(C3CCCCO3)c2n1 (centres undefined)
97 % of control

Same thing, different molecule: "Cc1c2cnccc2c(C)c2c1c1ccccc1n2CCCCCCCCCCCCn1c2ccccc2c2c(C)c3cnccc3c(C)c21"
100 % of control

Next molecule up: "CCCCOC(=O)c1ccc2nc(NC(=O)OC)[nH]c2c1"
100 % of control

Same again, this time with "[Ni+2].[O-]/C(=N\N=C\c1ccccn1)c1ccccc1O.[O-]/C(=N\N=C\c1ccccn1)c1ccccc1O"
101 % of control

// repeat for "CC(C)n1c(Cl)c(C(=O)O)c2ccccc21" and report
100 % of control

Then "CCCCCCOc1cc(N)ccc1C(=O)O" ?
98 % of control

---

test system: P388 leukemia ip, CD2F1 mice, survival T/C; test: NCI In Vivo Anticancer Drug Screen. Data for tumor model P388 Leukemia (intraperitoneal) in CD2F1 (CDF1) mice; details: endpoint: median survival time; dose: 400.0 mg/kg/injection; schedule: Q01DX009 (ip); vehicle: saline with Tween-80; higher = longer survival
Inconclusive results and toxic doses are left out.
propertyName: T/C

Examples with answers:
compound | propertyName | reportedResult
COc1ccc(C(=O)NO)cc1 | T/C | 115 % of control
CNS(=O)(=O)c1ccc2c(c1)[nH]c(=S)n2C | T/C | 90 % of control
O=C1c2cccnc2C(=O)c2c(O)ccc(O)c21 | T/C | 100 % of control
Cc1ccc(S(=O)(=O)O/N=C(/C#N)c2ccccc2)cc1 | T/C | 97 % of control
S=C1SCN(C2CCCCCCCCCCC2)CN1C1CCCCCCCCCCC1 | T/C | 101 % of control
CCCCCCCCCCC(=O)CCCC | T/C | 109 % of control

// returns reported T/C for input "CC(C)(Nc1ccccc1)c1cccs1"
95 % of control

And "Nc1ccc(S(=O)(=O)Nc2ccccc2-c2nc(N)nc(N)n2)cc1" ?
101 % of control

Another compound: C=C(C)C(=O)OCCO (tested in a mixture with another compound)
100 % of control

// next record CC1C(=O)CCC2(C)CCC(C)(C)CC12 (stereo not given)
95 % of control

# iterate: "CCCCN(S(=O)(=O)c1ccc(C)cc1)S(=O)(=O)c1ccc(C)cc1"
87 % of control

Consider next the compound "N#C/C(=C1C=C(Br)/C(=N\O)C=C\1Cl)c1cccc2ccccc12" in the same way.
115 % of control

Next compound: COC(=O)C1CCC2c3ccccc3C(C1)c1ccccc12 (stereo not given)
118 % of control

Please do the same for "CC(=O)OCC(=O)[C@@]1(O)CC[C@H]2[C@@H]3C[C@H](C)C4=CC(=O)C=C[C@]4(C)[C@H]3[C@@H](O)C[C@@]21C" as well.
100 % of control

How about "Cc1cc(CCNC=O)c(C)c2c1oc1ccccc12" ?
94 % of control

---

system: P388 leukemia ip, CD2F1 mice, survival T/C; experiment: NCI In Vivo Anticancer Drug Screen. Data for tumor model P388 Leukemia (intraperitoneal) in CD2F1 (CDF1) mice; details: endpoint: median survival time; dose: 100.0 mg/kg/injection; schedule: Q01DX001 (ip); vehicle: saline; higher = longer survival
Inconclusive results and toxic doses are left out.
Parameter T/C: see the listing below.

Would you please look over these solved cases?
compound | studySystem | T/C
CC1[N-]CCCN(CCN(C)C)CCC[N-]C(C)C2CCCC1[N-]2.[Ni+3].[O-][Cl+3]([O-])([O-])O (stereo unspecified) | P388 leukemia ip, CD2F1 mice, survival T/C | 106 % of control
COC(=O)c1ccnc(C(=O)OC)c1 | P388 leukemia ip, CD2F1 mice, survival T/C | 95 % of control
COCC1=C(C)CC(C(C)(C)C(=O)OC)C1=O (stereo unspecified) | P388 leukemia ip, CD2F1 mice, survival T/C | 101 % of control

Give the reported T/C for "CCN(CC)CCOC(=O)Cc1cccc2c(=O)cc(-c3ccccc3)oc12" (system: P388 leukemia ip, CD2F1 mice, survival T/C).
102 % of control

Lookup "Nc1nc(N)c(-c2ccc(Cl)cc2)c(COc2ccc(NC(=O)c3ccc(NC(=O)CCl)cc3)cc2)n1"
114 % of control

And for CC(=O)NC(CC(=O)O)C(=O)O (stereo unspecified) ?
106 % of control

---

system: P388 leukemia ip, CD2F1 mice, survival T/C; experiment: NCI In Vivo Anticancer Drug Screen. Data for tumor model P388 Leukemia (intraperitoneal) in CD2F1 (CDF1) mice; conditions: endpoint: median survival time; dose: 100.0 mg/kg/injection; schedule: Q01DX009 (ip); vehicle: saline with Tween-80; higher = longer survival
Toxic doses and inconclusive results are not listed.
Each record here notes measured T/C.

compound | T/C
CCOC(=O)Cn1c(=S)sc2ccccc21 | 99 % of control
O=C(N=C(N=C(c1ccccc1)N1CCCCC1)c1ccccc1)c1ccccc1 | 93 % of control
CN(C)C(=O)c1cccc(COc2ccc([N+](=O)[O-])cc2Cl)c1 | 110 % of control
CC1(C)C/C(=C2\COC(=O)C2=O)NN1c1ccccc1 | 99 % of control
O=C(O)c1c(Cl)cccc1Cl | 100 % of control
C#CC(C)(O)C(O)c1ccccc1 (configuration not stated) | 109 % of control

# input for lookup
Requested field: T/C. Item: OC(CNc1ccccc1Cl)COc1ccc(Cl)cc1Cl (configuration not stated)
95 % of control

---

system: P388 leukemia ip, CD2F1 mice, survival T/C; assay: NCI In Vivo Anticancer Drug Screen. Data for tumor model P388 Leukemia (intraperitoneal) in CD2F1 (CDF1) mice; conditions: endpoint: median survival time; dose: 100.0 mg/kg/injection; schedule: Q01DX005 (ip); vehicle: saline
Inconclusive results and toxic doses are left out. How the source made its calls: active means survival T/C of 150% or more; inactive means T/C below 125% in these data. Peptide text beside a SMILES is read from it.
Give one outcome, nothing more. List: true (1) for active, false (0) for inactive

Recorded results for 3 molecules are shown here.
molecule | studySystem | group
C[n+]1ccc(C[n+]2ccccc2)c2ccccc21 | P388 leukemia ip, CD2F1 mice, survival T/C | false (0)
C=C(C)C(=NC(C)(C)C)Nc1ccccc1 | P388 leukemia ip, CD2F1 mice, survival T/C | true (1)
O=C1CN(CCN2CCOCC2)CC(=O)N2CCCCN12 | P388 leukemia ip, CD2F1 mice, survival T/C | false (0)

How did this test come out for NCCCCC(NC(=O)C(Cc1cnc[nH]1)NC(=O)CN)C(=O)O (stereo not drawn) (H-Gly-His-Lys-OH; configuration not given here) ?
false (0)

And what about the molecule CCN(CC)CCOCC1CC2C(C=C1C)C2(C)C (stereo unspecified) ?
false (0)

// next record CC(=O)NC1C(Nc2ccc(S(=O)(=O)Nc3ncccn3)cc2)OC(CO)C(O)C1O (stereo unspecified)
false (0)

Origin of the recorded values: PubChem BioAssay AID330
